Values compiled from ChEMBL document CHEMBL3421632.

system-under-test: KiSS-1 receptor (Homo sapiens, UniProt Q969F8)
Sequence (Q969F8 whole entry): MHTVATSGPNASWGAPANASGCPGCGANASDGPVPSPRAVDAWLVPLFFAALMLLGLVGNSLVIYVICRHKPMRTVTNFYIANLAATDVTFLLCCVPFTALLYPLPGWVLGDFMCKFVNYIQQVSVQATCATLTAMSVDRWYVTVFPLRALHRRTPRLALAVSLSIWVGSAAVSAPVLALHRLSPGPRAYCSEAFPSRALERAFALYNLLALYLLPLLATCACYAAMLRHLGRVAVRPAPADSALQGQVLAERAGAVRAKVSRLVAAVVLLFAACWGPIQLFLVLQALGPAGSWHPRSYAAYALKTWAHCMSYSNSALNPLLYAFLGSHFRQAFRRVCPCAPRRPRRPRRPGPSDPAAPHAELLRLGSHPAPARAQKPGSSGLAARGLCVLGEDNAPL
method-description: Agonist activity at human wild-type KISS1R expressed in HEK293 cells assessed as induction of intracellular Ca2+ mobilization after 30 mins by Fluo4 NW Ca2+ assay
Format: functional, cell-based
*1 amine or outer side, *2 acyl side, *3 side chain or, on linkers, in order; H or OH if unused. Where a SMILES comes first, the peptide text is derived from it. Side-chain parts run from the residue outwards. [ ]: non-standard residue; d: D form. The star is where a group is joined. Glyψ(1,4-Tz)Leu = CC(C)C[C@@H](C(=O)[*:2])n1cc(CN[*:1])nn1; X1 = O=C(Cn1cc([C@H](Cc2ccccc2)N[*:1])nn1)[*:2]; γGlu = O=C(O)[C@H](CCC(=O)[*:2])N[*:1]; Palmitoyl = CCCCCCCCCCCCCCCC(=O)*; azaGly = NNC(=O)O
# maps each entry to its pEC50
Hey, just a heads up that pEC50 is the negative log base 10 of the concentration in molar.

Some solved cases for reference:
CC(=O)N[C@@H](Cc1ccc(O)cc1)C(=O)N[C@@H](CC(N)=O)C(=O)N[C@@H](Cc1c[nH]c2ccccc12)C(=O)N[C@@H](CC(N)=O)C(=O)N[C@@H](CO)C(=O)N[C@@H](Cc1ccccc1)c1cn(CC(=O)N[C@@H](CC(C)C)C(=O)N[C@@H](CCCNC(=N)N)C(=O)N[C@@H](Cc2ccc(O)cc2)C(N)=O)nn1 (Ac-YNWNS[X1]LRY-NH2)	9.22
CCCCCCCCCCCCCCCC(=O)N[C@@H](CCC(=O)NCCCC[C@H](NC(=O)[C@H](CC(N)=O)NC(=O)[C@H](Cc1ccc(O)cc1)NC(C)=O)C(=O)N[C@@H](CC(N)=O)C(=O)N[C@@H](CO)C(=O)N[C@@H](Cc1ccccc1)C(=O)NCC(=O)N[C@@H](CC(C)C)C(=O)N[C@@H](CCCNC(=N)N)C(=O)N[C@@H](Cc1ccc(O)cc1)C(N)=O)C(=O)O (Ac-YNK([γGlu-Palmitoyl])NSFGLRY-NH2)	7.61
CCCCCCCCCCCCCCCC(=O)N[C@@H](CCC(=O)NCCCC[C@H](NC(=O)[C@H](CC(N)=O)NC(=O)[C@H](Cc1ccc(O)cc1)NC(C)=O)C(=O)N[C@@H](CC(N)=O)C(=O)N[C@@H](CO)C(=O)N[C@@H](Cc1ccccc1)C(=O)NCc1cn([C@@H](CC(C)C)C(=O)N[C@@H](CCCNC(=N)N)C(=O)N[C@@H](Cc2ccc(O)cc2)C(N)=O)nn1)C(=O)O (Ac-YNK([γGlu-Palmitoyl])NSF[Glyψ(1,4-Tz)Leu]RY-NH2)	6.67
CC(=O)N[C@@H](Cc1ccc(O)cc1)C(=O)N[C@@H](CC(N)=O)C(=O)N[C@@H](Cc1c[nH]c2ccccc12)C(=O)N[C@@H](CC(N)=O)C(=O)N[C@@H](CO)C(=O)N[C@@H](Cc1ccccc1)C(=O)NNC(=O)N[C@@H](CC(C)C)C(=O)N[C@@H](CCCNC(=N)N)C(=O)N[C@@H](Cc1ccc(O)cc1)C(N)=O (Ac-YNWNSF[azaGly]LRY-NH2)	11.22
CCCCCCCCCCCCCCCC(=O)N[C@@H](CCC(=O)NCCCC[C@H](NC(=O)[C@H](Cc1ccc(O)cc1)NC(C)=O)C(=O)N[C@@H](Cc1c[nH]c2ccccc12)C(=O)N[C@@H](CC(N)=O)C(=O)N[C@@H](CO)C(=O)N[C@@H](Cc1ccccc1)C(=O)NCC(=O)N[C@@H](CC(C)C)C(=O)N[C@@H](CCCNC(=N)N)C(=O)N[C@@H](Cc1ccc(O)cc1)C(N)=O)C(=O)O (Ac-YK([γGlu-Palmitoyl])WNSFGLRY-NH2)	8.54
CC(=O)N[C@@H](Cc1ccc(O)cc1)C(=O)N[C@@H](CC(N)=O)C(=O)N[C@@H](Cc1c[nH]c2ccccc12)C(=O)N[C@@H](CC(N)=O)C(=O)N[C@@H](CO)C(=O)N[C@@H](Cc1ccccc1)C(=O)NCc1cn([C@@H](CC(C)C)C(=O)N[C@@H](CCCNC(=N)N)C(=O)N[C@@H](Cc2ccc(O)cc2)C(N)=O)nn1 (Ac-YNWNSF[Glyψ(1,4-Tz)Leu]RY-NH2)	10.15
CCCCCCCCCCCCCCCC(=O)NCCCC[C@H](NC(=O)[C@H](Cc1ccc(O)cc1)NC(C)=O)C(=O)N[C@@H](Cc1c[nH]c2ccccc12)C(=O)N[C@@H](CC(N)=O)C(=O)N[C@@H](CO)C(=O)N[C@@H](Cc1ccccc1)C(=O)NCC(=O)N[C@@H](CC(C)C)C(=O)N[C@@H](CCCNC(=N)N)C(=O)N[C@@H](Cc1ccc(O)cc1)C(N)=O (Ac-YK(Palmitoyl)WNSFGLRY-NH2)	6.74
CC(=O)N[C@@H](Cc1ccc(O)cc1)C(=O)N[C@@H](CC(N)=O)C(=O)N[C@@H](Cc1c[nH]c2ccccc12)C(=O)N[C@@H](CC(N)=O)C(=O)N[C@@H](CO)C(=O)N[C@@H](Cc1ccccc1)c1cn(Cc2cn([C@@H](CC(C)C)C(=O)N[C@@H](CCCNC(=N)N)C(=O)N[C@@H](Cc3ccc(O)cc3)C(N)=O)nn2)nn1	6.92

Now for the compound whose pEC50 we want.
QUERY: Which measured pEC50 value corresponds to CCCCCCCCCCCCCCCC(=O)N[C@@H](CCC(=O)NCCCC[C@H](NC(=O)[C@H](Cc1ccc(O)cc1)NC(C)=O)C(=O)N[C@@H](Cc1c[nH]c2ccccc12)C(=O)N[C@@H](CC(N)=O)C(=O)N[C@@H](CO)C(=O)N[C@@H](Cc1ccccc1)C(=O)NCc1cn([C@@H](CC(C)C)C(=O)N[C@@H](CCCNC(=N)N)C(=O)N[C@@H](Cc2ccc(O)cc2)C(N)=O)nn1)C(=O)O (Ac-YK([γGlu-Palmitoyl])WNSF[Glyψ(1,4-Tz)Leu]RY-NH2) ?
RESULT: 8.80

###

system-under-test: KiSS-1 receptor (Homo sapiens, UniProt Q969F8)
method-description: Agonist activity at human wild-type KISS1R expressed in HEK293 cells assessed as induction of intracellular Ca2+ mobilization after 30 mins by Fluo4 NW Ca2+ assay
Type: functional, cell-based
pEC50: −log10 of the molar value.
measured-property: pEC50

Some solved cases for reference:
Ac-YNWNSFGLRY-NH2	10.15
Ac-YNWK(Ac)SFGLRY-NH2	7.86

P. H-YNWNSFGLRY-NH2
Q. Ac-K(Ac)NWNSFGLRY-NH2
QUERY: Select one: P or Q . Criterion: greater recorded pEC50. Write down the label of the entry you select.
RESULT: Q

###

method-description: Stability in Ile-de-France ewe serum assessed as intact compound level at 50 uM incubated for 6 hrs by HPLC method
Format: ADME, cell-free, Ovis aries
run-parameters: female, sheep, read-out: Stability
*1 amine or outer side, *2 acyl side, *3 side chain or, on linkers, in order; H or OH if unused. Where a SMILES comes first, the peptide text is derived from it. [ ]: non-standard residue; d: D form. Glyψ(1,4-Tz)Leu = CC(C)C[C@@H](C(=O)[*:2])n1cc(CN[*:1])nn1; azaGly = NNC(=O)O
measured-property: remaining at 6 h, 50 µM (%)
Reply with just the number (in %).

Some solved cases for reference:
CC(=O)N[C@@H](Cc1ccc(O)cc1)C(=O)N[C@@H](CC(N)=O)C(=O)N[C@@H](Cc1c[nH]c2ccccc12)C(=O)N[C@@H](CC(N)=O)C(=O)N[C@@H](CO)C(=O)N[C@@H](Cc1ccccc1)c1cn(Cc2cn([C@@H](CC(C)C)C(=O)N[C@@H](CCCNC(=N)N)C(=O)N[C@@H](Cc3ccc(O)cc3)C(N)=O)nn2)nn1	50.7
CC(=O)N[C@@H](Cc1ccc(O)cc1)C(=O)N[C@@H](CC(N)=O)C(=O)N[C@@H](Cc1c[nH]c2ccccc12)C(=O)N[C@@H](CC(N)=O)C(=O)N[C@@H](CO)C(=O)N[C@@H](Cc1ccccc1)C(=O)NCc1cn([C@@H](CC(C)C)C(=O)N[C@@H](CCCNC(=N)N)C(=O)N[C@@H](Cc2ccc(O)cc2)C(N)=O)nn1 (Ac-YNWNSF[Glyψ(1,4-Tz)Leu]RY-NH2)	40.8

Now for the compound whose remaining at 6 h, 50 µM we want.
QUERY: Which measured remaining at 6 h, 50 µM value corresponds to CC(=O)N[C@@H](Cc1ccc(O)cc1)C(=O)N[C@@H](CC(N)=O)C(=O)N[C@@H](Cc1c[nH]c2ccccc12)C(=O)N[C@@H](CC(N)=O)C(=O)N[C@@H](CO)C(=O)N[C@@H](Cc1ccccc1)C(=O)NNC(=O)N[C@@H](CC(C)C)C(=O)N[C@@H](CCCNC(=N)N)C(=O)N[C@@H](Cc1ccc(O)cc1)C(N)=O (Ac-YNWNSF[azaGly]LRY-NH2) ?
RESULT: 8.4
